# System: SK-OV-3 ovarian
# ASSAY REMARKS: NCI tumour cell line growth inhibition, 48 h
Provide the recorded TGI for the entries that follow.
One number for each entry, in µM.

Worked cases, TGI given:
> print(dat)
                                   compound  recorded.metric  numeric.result
1  COc1cc2ncnc(-n3ncc4cc(NC(=O)Nc5ccccc5)ccc43)c2cc1OC              TGI             4.6
2  Cc1sc2nc(-c3cccc([N+](=O)[O-])c3)c(/C=N/N=C(N)N)n2c1C              TGI             3.3
3  CC(=O)C1Cn2c(nc3ccccc32)C[Se]1 (centres undefined)              TGI              34

Consider the additional compound presented here.
Using the record for `CCOC(=O)C1CCN(S(=O)(=O)/N=C2/NC(=O)NC2=C(Cl)Cl)CC1` , report its TGI.
21.7

====

# Test system: SR leukemia
# ASSAY REMARKS: NCI tumour cell line growth inhibition, 48 h
Provide the recorded TGI for the entries that follow.

Worked cases, TGI given:
> print(dat)
                                   compound  recorded.metric    result
1  O=C(/C=C/c1ccc2ccccc2c1)NCc1ccc(C(=O)NCCc2ccccc2)cc1              TGI  > 100 µM
2  Nc1nc([O-])c2c(n1)[n+](C1OC(CO)C(O)C1O)cn2CCO (configuration not stated)              TGI  > 100 µM

Return reported TGI values for all items listed beneath this line.
1. Nc1nc(-c2ccccc2)cc(-c2ccc(OCc3ccccc3)cc2O)n1
2. COC(=O)CC1N=C(NC#N)N(CCc2c[nH]c3ccccc23)C1=O (configuration not stated)
3. C=C(C)[C@H]1Cc2c(ccc3c2O[C@@H]2COc4cc(OC)c(OC)cc4[C@@H]2C3=O)O1

1: > 100 µM; 2: > 100 µM; 3: 22.2 µM

Return reported TGI values for all items listed beneath this line.
1. N#Cc1[nH]c(=O)n(-c2ccccc2)c1N
2. COCCCNc1nc(N)c(C#N)c(C#N)c1C#N
3. CN=C(SC)N(C)c1nc(=[N+](C)C)ss1
4. CN(Cc1ccccc1)C(=O)c1ccccc1C(=O)O
5. Nc1ccccc1/C(O)=C1/CCOC1=O
6. COc1ccc(-c2cc(-c3cc(C)cc(Br)c3O)no2)cc1
7. CC1=C(/C=C/Cl)CC(Cl)C(C)(Cl)C1 (configuration not stated)

["> 10 µM", "> 10 µM", "> 100 µM", "> 100 µM", "> 100 µM", "> 100 µM", "> 100 µM"]

Return reported TGI values for all items listed beneath this line.
1. COc1ccc2[nH]c3c4[nH]c5ccc(OC)cc5c4c4c(c3c2c1)C(=O)NC4=O
2. O=C(CC(=O)n1nc(-c2ccccc2)c(N=Nc2ccc(Cl)cc2)c1-c1ccccc1)Nc1ccc(Cl)cc1
3. CCOC(=O)c1cn2c(n1)sc1cc(Cl)ccc12
4. CO/C=C(/C(=O)OC)c1ccccc1COc1cccc(C(F)(F)F)c1
5. O=C(c1cccc2ccccc12)N1CCC(C2CCN(C(=O)c3cccc4ccccc34)CC2)CC1

> 25 µM
> 100 µM
> 100 µM
> 100 µM
> 100 µM

Return reported TGI values for all items listed beneath this line.
1. COc1cc2[nH]c3c(c2cc1OC)CCN[C@]31CC[C@]2(CC3c4c(cc(OC)c(O)c42)CCN3C)C[C@H]1OC (some centres not stated)
2. C[Si](C)(C)OC1CC(=O)OC1n1cc(F)c(=O)[nH]c1=O (configuration not stated)

40 µM
9.38 µM

Return reported TGI values for all items listed beneath this line.
1. CCCCCCCCCCCC(=O)OCC(C[As](=O)(O)O)OC(=O)CCCCCCCCCCC (configuration not stated)
2. N#CCCC(CCC#N)(CCC#N)NO
3. O=C1c2ccccc2C(=O)N1CCCCNOCCCN1C(=O)c2ccccc2C1=O

["51.4 µM", "> 100 µM", "> 100 µM"]

====

# System: T-47D breast
# ASSAY REMARKS: NCI tumour cell line growth inhibition, 48 h; in the data active = GI50 below about 0.43 µM; inactive = the rest
// allowed return values: active, inactive

Use the examples below as a reference point.
COMPOUND	CLASS LABEL
Cc1ccc(N=C/C=C(\Nc2ccc(C)cc2)c2ccc(Cl)cc2)cc1	inactive
CCc1nc2cc(F)c(/C=C/C(=O)NO)cc2c(=O)n1CCc1ccccc1	active
N#Cc1cc(-c2cc3ccccc3o2)oc1N	inactive

Consider the additional compound presented here.
What classification did `COc1cc2c3c(n(CCCN)c(=O)c2cc1OC)-c1ccc(C#N)cc1C3=O` end up with in this test?
inactive

====

Provide the recorded TGI for the entries that follow.
# System: OVCAR-8 ovarian
# ASSAY REMARKS: NCI tumour cell line growth inhibition, 48 h

Worked cases, TGI given:
> print(dat)
                                   compound  recorded.metric     result
1             C1=Cc2cc3c(c4nccc(c24)N1)OCO3              TGI  > 46.8 µM
2  CN1CCN(CCCNc2nc3ccc(Oc4ccc(NC(=O)Nc5cc(C(F)(F)F)ccc5F)cc4)cc3[nH]2)CC1              TGI    13.5 µM
3   CN(C)CCNc1ccc(CO)c2oc3ccc(O)cc3c(=O)c12              TGI    14.4 µM

Return reported TGI values for all items listed beneath this line.
1. Cc1cc(C)c(NC(=O)c2sc3nc4c(cc3c2N)C(=O)CCC4)c(C)c1
2. CCOc1ncn(-c2ccc(NC(=S)NC3OC(CO)C(O)C(O)C3O)cc2)n1 (stereo not given)
3. COC(=O)C(Cc1nc2ccccc2[nH]c1=O)C(NO)C(=O)Nc1c(Cl)cc([N+](=O)[O-])cc1Cl (stereo not given)
4. O=C1c2ccsc2C(=O)c2sc(CO)cc21
5. CC(=O)[C@@H](C)C(=O)N1C(=O)OC[C@@]12[C@@H]1CC[C@@H](C1)C2(C)C
6. CC1=[N+]([O-])c2ccccc2C(=O)C1=O

1. > 100 µM
2. > 100 µM
3. > 100 µM
4. 0.38 µM
5. > 100 µM
6. > 100 µM

For OVCAR-8 ovarian, provide TGI of `CCOC(=O)Cn1c(=O)ccn(COCCO)c1=O` please.
> 100 µM

====

Provide the recorded TGI for the entries that follow.
# Test system: SK-MEL-28 melanoma
# ASSAY REMARKS: NCI tumour cell line growth inhibition, 48 h

Worked cases, TGI given:
COMPOUND	TGI
CC(=O)O[C@H]1C(=O)[C@@]2(C)C(C(OC(=O)c3ccccc3)[C@]3(O)CC(OC(=O)C(O)C(NC(=O)c4ccc(C(F)(F)F)cc4)c4ccccc4)C(C)=C1C3(C)C)[C@]1(OC(C)=O)CO[C@@H]1C[C@@H]2O (some centres not stated)	17.8 µM
O=C(c1ccco1)N(C(=S)OCCOc1ccccc1)c1ccccc1	40.3 µM
CCN(CC)C1CC(O[C@H]2C[C@](O)(C(=O)CO)Cc3c(O)c4c(c(O)c32)C(=O)c2c(OC)cccc2C4=O)OC(C)C1O (some centres not stated)	0.216 µM
O=C(O)CNS(=O)(=O)c1ccc(NC(=O)c2ccc([N+](=O)[O-])cc2)cc1	> 100 µM
O=C(N/N=C/c1cc(Br)ccc1O)N/N=C/c1cc(Br)ccc1O	> 100 µM

Return reported TGI values for all items listed beneath this line.
1. Cc1cc(NC(=S)SCc2ccc(F)cc2)c([N+](=O)[O-])cc1C
2. [N-]=[N+]=C1C(=O)NN=C1c1ccccc1

["> 100 µM", "> 100 µM"]

Return reported TGI values for all items listed beneath this line.
1. Cc1ccc2c(c1)CC1(Cc3ccccc3C1=O)C2=O (configuration not stated)
2. N#C[C@@H](c1ccccn1)c1ncccc1[N+](=O)[O-]
3. CC/C=C\C[C@H](O)C/C=C1/C(=O)C=C[C@@H]1C/C=C\CCCC(=O)OC
4. CN(C(=O)Cc1cccc(N=C=S)c1)[C@H]1CCCC[C@@H]1N1CCCC1

1: > 100 µM; 2: > 100 µM; 3: 4.37 µM; 4: 32.8 µM

Return reported TGI values for all items listed beneath this line.
1. Cc1ccc([N+](=O)[O-])c2c(NCCC[N+](C)(C)[O-])c3ccccc3nc12
2. O=C(NC(Cc1ccccc1)(Cc1ccc(O)cn1)C(=O)O)c1ccccc1 (configuration not stated)
3. COc1cc(/C=C/c2ccc(OC)c(O)c2)cc(OC)c1
4. CC(C)OC(=O)/C=C/C(=O)O/C=C/[N+](=O)[O-]
5. COC(=O)Nc1nc2ccc(S(=O)(=O)SC)cc2[nH]1

1: 17 µM; 2: > 100 µM; 3: 24.5 µM; 4: > 100 µM; 5: 25.3 µM

Return reported TGI values for all items listed beneath this line.
1. COc1ccc(-c2cc(-c3cc(C)cc(Br)c3O)no2)cc1
2. CCOC(=O)c1cc2c3ccn(Cc4ccccc4)c3c3c(C)[nH]oc3c2n1

> 100 µM
> 100 µM
